Reported kon is given for each of the following binders.
target: T1, recombinant HIS-tagged human nectin-4 (Acro Biosystems Cat. No. NE4-H52H3) (human, UniProt Q96NY8 32-349)
T1 construct: Bought protein; not shown: HIS tag
T1 sequence: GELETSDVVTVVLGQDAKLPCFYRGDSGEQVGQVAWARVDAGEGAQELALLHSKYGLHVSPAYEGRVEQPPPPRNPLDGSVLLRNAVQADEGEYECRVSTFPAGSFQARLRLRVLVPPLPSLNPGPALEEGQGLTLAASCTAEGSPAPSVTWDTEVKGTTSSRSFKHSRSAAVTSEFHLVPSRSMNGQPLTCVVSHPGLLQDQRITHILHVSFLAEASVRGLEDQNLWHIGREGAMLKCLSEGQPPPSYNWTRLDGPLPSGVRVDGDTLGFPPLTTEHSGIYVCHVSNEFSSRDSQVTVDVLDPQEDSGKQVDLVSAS
test-protocol: SPR Biacore 8K+, ADC captured via anti-human Fc, nectin-4 analyte, 37 C;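 further: Nectin-4 injected over captured ADC at 0 to 600 nM for 2 min association, then 10 min dissociation, with a reference flow cell lacking ADC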

# binder, kon [M⁻¹ s⁻¹]
rows = [
    ("Ab8 ADC (Ab8 conjugated as in Formula XI, DAR of 8) (antibody, human IgG1, lambda, L234A L235A, V domains shown, camptothecin analog linker-payload of Formula XI on cysteine thiols after full reduction, DAR of 8 per antibody; positions not given, Antibody-drug conjugate of Ab8; also called Ab8 (ADC column)) VH: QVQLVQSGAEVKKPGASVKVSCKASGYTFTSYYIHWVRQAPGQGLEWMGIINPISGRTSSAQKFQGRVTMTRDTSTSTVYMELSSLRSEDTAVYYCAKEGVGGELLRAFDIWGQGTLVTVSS VL: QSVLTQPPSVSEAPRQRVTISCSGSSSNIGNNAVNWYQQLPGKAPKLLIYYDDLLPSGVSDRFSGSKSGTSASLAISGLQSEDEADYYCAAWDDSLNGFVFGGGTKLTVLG", 694000),
    ("Ab3 ADC (Ab3 conjugated as in Formula XI, DAR of 8) (antibody, human IgG1, kappa, L234A L235A, V domains shown, camptothecin analog linker-payload of Formula XI on cysteine thiols after full reduction, DAR of 8 per antibody; positions not given, Antibody-drug conjugate of Ab3; also called Ab3 (ADC column)) VH: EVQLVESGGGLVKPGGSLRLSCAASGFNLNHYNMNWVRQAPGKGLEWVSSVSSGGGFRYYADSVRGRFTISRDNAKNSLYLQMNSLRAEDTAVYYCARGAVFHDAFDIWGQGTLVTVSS VL: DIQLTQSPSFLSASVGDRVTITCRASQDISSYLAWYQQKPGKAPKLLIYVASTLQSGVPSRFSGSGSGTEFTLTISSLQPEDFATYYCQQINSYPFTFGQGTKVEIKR", 424000),
    ("Ab6 ADC (Ab6 conjugated as in Formula XI, DAR of 8) (antibody, human IgG1, lambda, L234A L235A, V domains shown, camptothecin analog linker-payload of Formula XI on cysteine thiols after full reduction, DAR of 8 per antibody; positions not given, Antibody-drug conjugate of Ab6; also called Ab6 (ADC column)) VH: QVQLVQSGAEVKKPGASVKVSCKASGYTFTGYYMHWVRQAPGQGLEWMGIINPSGGSTTYAQKFQGRVTMTRDTSTSTVYMELSSLRSEDTAVYYCARGRLGTYFDYWGQGTLVTVSS VL: SYVLTQPPSVSVAPGQTARITCGGNNIGSKSVHWYQQKPGQAPVLVVYDDSDRPSGIPERFSGSNSGNTATLTISRVEAGDEADYYCQVWDRSSDQVVFGGGTKLTVLG", "1.78e+06"),
    ("Ab5 ADC (Ab5 conjugated as in Formula XI, DAR of 8) (antibody, human IgG1, kappa, L234A L235A, V domains shown, camptothecin analog linker-payload of Formula XI on cysteine thiols after full reduction, DAR of 8 per antibody; positions not given, Antibody-drug conjugate of Ab5; also called Ab5 (ADC column)) VH: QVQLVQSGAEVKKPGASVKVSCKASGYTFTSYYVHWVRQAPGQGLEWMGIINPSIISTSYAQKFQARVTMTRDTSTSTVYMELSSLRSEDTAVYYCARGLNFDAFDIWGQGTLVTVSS VL: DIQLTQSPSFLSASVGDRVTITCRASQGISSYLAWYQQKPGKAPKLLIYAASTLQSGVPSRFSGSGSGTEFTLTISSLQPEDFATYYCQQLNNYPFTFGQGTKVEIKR", 878000),
]
